Ref: the Immune Epitope Database (IEDB)

Molecular target: HLA-B*07:02
Assay: IEDB peptide-MHC binding, purified MHC/competitive/radioactivity; filed as Kd, often an IC50 or EC50 that approximates it; bounds were set here for any values at or beyond the usual limits of such assays
Settings: source organism: Human alphaherpesvirus 2
MEASURED_ATTRIBUTE: Kd (nM)

>>> experimental_result("APAWSRRTL")
0.19

====

Molecular target: HLA-C*05:01
Assay: IEDB peptide-MHC binding, purified MHC/direct/fluorescence; filed as Kd, often an IC50 or EC50 that approximates it; bounds were set here for any values at or beyond the usual limits of such assays
Details: source organism: human gammaherpesvirus 4
MEASURED_ATTRIBUTE: Kd

>>> experimental_result("YSQGAFTPL")
"3.08 µM"
>>> experimental_result("YAMAIRQAI")
"2.23 µM"

====

Target: HLA-A*02:01
Assay: IEDB peptide-MHC binding, purified MHC/competitive/fluorescence; filed as Kd, often an IC50 or EC50 that approximates it; bounds were set here for any values at or beyond the usual limits of such assays
Settings: source organism: Vaccinia virus WR
MEASURED_ATTRIBUTE: Kd (nM)

>>> experimental_result("LLPDSDVFV")
1.1

====

Target: HLA-B*15:01
Test: IEDB peptide-MHC binding, purified MHC/competitive/radioactivity; filed as Kd, often an IC50 or EC50 that approximates it; bounds were set here for any values at or beyond the usual limits of such assays
Conditions: source organism: Vaccinia virus WR
pKd: −log10 of the molar value.
MEASURED_ATTRIBUTE: pKd

>>> experimental_result("VLFEVFVVF")
8.55
>>> experimental_result("YQSLSPPPF")
5.30
>>> experimental_result("LANFLCLLM")
5.88
>>> experimental_result("ISESRFQSL")
5.54
>>> experimental_result("MVKNNKIQK")
4.74
>>> experimental_result("LLKDRNELF")
8.74
>>> experimental_result("KVSIYKTHI")
5.84
>>> experimental_result("MGLNYKLTF")
5.45
>>> experimental_result("SLKSLYEAF")
7.69
>>> experimental_result("LLHRCIYHY")
7.37
>>> experimental_result("ESKMSFLPI")
6.45
>>> experimental_result("KVKSCLCSF")
7.78
>>> experimental_result("FIFNIIMSF")
6.40
>>> experimental_result("IIIPFIAYF")
8.80
>>> experimental_result("WSIYLSLHY")
7.32
>>> experimental_result("TMKERRPIL")
6.09
>>> experimental_result("QIVAYFSEF")
8.86

====

Molecular target: HLA-A*03:01
Experiment: IEDB peptide-MHC binding, purified MHC/competitive/radioactivity; filed as Kd, often an IC50 or EC50 that approximates it; bounds were set here for any values at or beyond the usual limits of such assays
Settings: source organism: Dengue virus 1 Brazil/97-11/1997
pKd: −log10 of the molar value.
Kind request: treat 8 as inclusive, so pKd at 8 or higher is 1, anything lower is 0.

>>> class_label("VMRSRWSRK")
1
>>> class_label("TLLSLTFIK")
1
>>> class_label("IMDLHPGSGK")
0

====

Biological target: HLA-C*05:01
Experiment: IEDB peptide-MHC binding, purified MHC/direct/fluorescence; filed as Kd, often an IC50 or EC50 that approximates it; bounds were set here for any values at or beyond the usual limits of such assays
Settings: source organism: Clostridium novyi NT
MEASURED_ATTRIBUTE: Kd

>>> experimental_result("ASMDNTSPM")
"≥ 20 µM"

====

Target: HLA-B*07:02
Assay: IEDB peptide-MHC binding, purified MHC/competitive/radioactivity; filed as Kd, often an IC50 or EC50 that approximates it; bounds were set here for any values at or beyond the usual limits of such assays
Details: source organism: Dengue virus 4 Thailand/0348/1991
pKd: −log10 of the molar value.
MEASURED_ATTRIBUTE: pKd

>>> experimental_result("NPNMIDKTPV")
6.40

====

pKd by entry:
Molecular target: HLA-B*54:01
Test: IEDB peptide-MHC binding, purified MHC/competitive/radioactivity; filed as Kd, often an IC50 or EC50 that approximates it; bounds were set here for any values at or beyond the usual limits of such assays
Conditions: source organism: Vaccinia virus WR
pKd: −log10 of the molar value.
MEASURED_ATTRIBUTE: pKd

>>> experimental_result("LPNVQFVDI")
7.77
>>> experimental_result("CPQKKKSQA")
7.18
>>> experimental_result("IPEISSNDNA")
5.34
>>> experimental_result("APKQVAGTGV")
6.58
>>> experimental_result("EPSGNNYHI")
5.80
>>> experimental_result("DPPIPYSRV")
6.49

====

Target: HLA-A*11:01
Experiment: IEDB peptide-MHC binding, purified MHC/direct/fluorescence; filed as Kd, often an IC50 or EC50 that approximates it; bounds were set here for any values at or beyond the usual limits of such assays
Conditions: source organism: Shigella flexneri
MEASURED_ATTRIBUTE: Kd

>>> experimental_result("DRLHPPNKL")
"≥ 20 µM"

====

Biological target: HLA-B*07:02
Assay: IEDB peptide-MHC binding, purified MHC/direct/fluorescence; filed as Kd, often an IC50 or EC50 that approximates it; bounds were set here for any values at or beyond the usual limits of such assays
Conditions: source organism: Vibrio vulnificus YJ016
MEASURED_ATTRIBUTE: Kd

>>> experimental_result("DAYGFHNYK")
"≥ 20 µM"

====

Molecular target: HLA-B*27:05
Test: IEDB peptide-MHC binding, purified MHC/direct/fluorescence; filed as Kd, often an IC50 or EC50 that approximates it; bounds were set here for any values at or beyond the usual limits of such assays
Details: source organism: Mammarenavirus lassaense
pKd: −log10 of the molar value.
MEASURED_ATTRIBUTE: pKd

>>> experimental_result("KHDEEFCDM")
"≤ 4.70"

====

Molecular target: HLA-A*26:01
Assay: IEDB peptide-MHC binding, purified MHC/competitive/fluorescence; filed as Kd, often an IC50 or EC50 that approximates it; bounds were set here for any values at or beyond the usual limits of such assays
Settings: source organism: Kurkino virus
pKd: −log10 of the molar value.
MEASURED_ATTRIBUTE: pKd

>>> experimental_result("WFLYVSQQI")
"≤ 4.70"

====

Target: HLA-A*30:01
Experiment: IEDB peptide-MHC binding, purified MHC/direct/fluorescence; filed as Kd, often an IC50 or EC50 that approximates it; bounds were set here for any values at or beyond the usual limits of such assays
Conditions: source organism: Cryptosporidium parvum
MEASURED_ATTRIBUTE: Kd (µM)

>>> experimental_result("KHNSAESAK")
11.9

====

Molecular target: HLA-A*02:50
Assay: IEDB peptide-MHC binding, purified MHC/competitive/fluorescence; filed as Kd, often an IC50 or EC50 that approximates it; bounds were set here for any values at or beyond the usual limits of such assays
Settings: source organism: Salmonella enterica subsp. enterica serovar Typhi
pKd: −log10 of the molar value.
MEASURED_ATTRIBUTE: pKd

>>> experimental_result("ATGDYVAFV")
9.05

====

Target: HLA-A*69:01
Experiment: IEDB peptide-MHC binding, purified MHC/direct/fluorescence; filed as Kd, often an IC50 or EC50 that approximates it; bounds were set here for any values at or beyond the usual limits of such assays
Conditions: source organism: Rickettsia conorii
MEASURED_ATTRIBUTE: Kd

>>> experimental_result("SSSGMDAYY")
"≥ 20 µM"

====

Molecular target: HLA-B*15:03
Assay: IEDB peptide-MHC binding, purified MHC/competitive/radioactivity; filed as Kd, often an IC50 or EC50 that approximates it; bounds were set here for any values at or beyond the usual limits of such assays
Details: source organism: Variola virus
MEASURED_ATTRIBUTE: Kd (nM)

>>> experimental_result("LSINSSFYF")
4.81

====

Biological target: HLA-B*15:01
Assay: IEDB peptide-MHC binding, purified MHC/competitive/fluorescence; bounds were set here for any values at or beyond the usual limits of such assays
Details: source organism: Variola virus
pIC50: −log10 of the molar value.
MEASURED_ATTRIBUTE: pIC50

>>> experimental_result("LLLWFNYLF")
"≤ 2.53"

====

Biological target: HLA-A*02:01
Assay: IEDB peptide-MHC binding, purified MHC/competitive/fluorescence; bounds were set here for any values at or beyond the usual limits of such assays
Conditions: source organism: Vaccinia virus Copenhagen
MEASURED_ATTRIBUTE: IC50

>>> experimental_result("TLNASQYAN")
"≥ 143 µM"
>>> experimental_result("ISIKLTDSL")
"7.32 µM"

====

Molecular target: HLA-B*39:01
Experiment: IEDB peptide-MHC binding, purified MHC/competitive/fluorescence; filed as Kd, often an IC50 or EC50 that approximates it; bounds were set here for any values at or beyond the usual limits of such assays
Conditions: source organism: Mycobacterium tuberculosis variant bovis BCG str. Pasteur 1173P2
MEASURED_ATTRIBUTE: Kd

>>> experimental_result("AEDLADHHV")
"≥ 20 µM"
